All figures here come from patent EP0531080A2.

Exercise: state measured pIC50 for each of the substances provided.
Biological target: RBG Protein/E7 (Homo sapiens, UniProt P06400)
Construct: made in house; host or cells: rabbit reticulocyte lysate (in vitro translation of RB)
Sequence (P06400 1-928): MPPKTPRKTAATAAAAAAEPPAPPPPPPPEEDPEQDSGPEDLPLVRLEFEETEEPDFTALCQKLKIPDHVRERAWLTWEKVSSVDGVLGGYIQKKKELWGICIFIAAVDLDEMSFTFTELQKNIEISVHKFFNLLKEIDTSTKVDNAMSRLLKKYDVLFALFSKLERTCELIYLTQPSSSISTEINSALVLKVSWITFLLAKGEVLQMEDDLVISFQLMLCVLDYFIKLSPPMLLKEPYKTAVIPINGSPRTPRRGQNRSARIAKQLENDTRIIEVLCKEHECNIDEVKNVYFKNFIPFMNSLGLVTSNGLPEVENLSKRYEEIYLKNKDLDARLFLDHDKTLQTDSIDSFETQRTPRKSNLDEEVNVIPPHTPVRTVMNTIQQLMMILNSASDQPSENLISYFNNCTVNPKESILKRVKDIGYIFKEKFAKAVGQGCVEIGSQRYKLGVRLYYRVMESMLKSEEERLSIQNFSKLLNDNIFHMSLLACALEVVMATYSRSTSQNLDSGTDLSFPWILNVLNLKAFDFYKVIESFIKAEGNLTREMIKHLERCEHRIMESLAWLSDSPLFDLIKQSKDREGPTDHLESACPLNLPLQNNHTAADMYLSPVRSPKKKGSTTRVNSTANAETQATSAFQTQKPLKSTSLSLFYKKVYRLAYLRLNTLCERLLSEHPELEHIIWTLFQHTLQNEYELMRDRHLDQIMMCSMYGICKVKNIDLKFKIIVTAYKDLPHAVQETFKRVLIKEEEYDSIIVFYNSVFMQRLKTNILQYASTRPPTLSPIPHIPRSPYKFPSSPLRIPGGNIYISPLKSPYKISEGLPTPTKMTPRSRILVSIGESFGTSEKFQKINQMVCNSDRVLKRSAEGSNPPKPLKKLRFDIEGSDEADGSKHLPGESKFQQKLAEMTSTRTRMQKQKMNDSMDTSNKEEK
Test: E7/RB plate binding assay (recombinant E7 on plate, 35S-labeled RBG protein)
Details: average of at least two experiments, triplicate; read-out: PLATE ASSAY RBG Protein/E7 IC₅₀
Where no end group is shown, it is not given here.
Conceptually, pIC50 converts a concentration in mol/L into minus its log10.

Data request: I would be grateful if you could share the reported pIC50 for E7-(20-32)-AMIDE (TDLYCYEQLNDSS-NH2; UniProt P03129 20-32, looked up, fragment) [Peptide 1] .
Data returned: 7.30

Data request: I would be grateful if you could share the reported pIC50 for E7-(14-29)-AMIDE (DLQPETTDLYCYEQLN-NH2; UniProt P03129 14-29, looked up, fragment) [Peptide 7] .
Data returned: 7.10

Data request: I would be grateful if you could share the reported pIC50 for [G1n27]]-E7-(20-27)-AMIDE (TDLYCYEQ-NH2; UniProt P03129 20-27, looked up, fragment) [Peptide 5] .
Data returned: 5.04

Data request: I would be grateful if you could share the reported pIC50 for E7-(18-29)-AMIDE (ETTDLYCYEQLN-NH2; UniProt P03129 18-29, looked up, fragment) [Peptide 8] .
Data returned: 7.22

Data request: I would be grateful if you could share the reported pIC50 for E7-(21)32)-AMIDE (DLYCYEQLNDSS-NH2; UniProt P03129 21-32, looked up, fragment) [Peptide 10] .
Data returned: 4.94

Data request: I would be grateful if you could share the reported pIC50 for TDLFCYEQLN-NH2 [Peptide 19, [Phe²³]-E7-(20-29)-AMIDE] .
Data returned: 7.22
